molecular target: Human HER2 expressed on tumour cells (human, UniProt P04626 23-1255); assay: cell-based or functional assay
property_label: IC50 [nM], inhibition of BT474 cell proliferation (BrdU) (nM)
# unit: nM | format: bare number

For DARPin #37 (designed binder) MRGSHHHHHHGSDLGIKLLFAAAKGQDDEVRILLAAGADVNAKDFEGYTPLHVAAYDGHLEIVEVLLKAGADVNAKDSQGRTPLHEAAYSGHLEIVEVLLKAGADVNAQDDAGETPADLAAAWGHEDIAEVLQKLGGGGSGGGGSRSDLGKKLLEAARAGQDDEVRILMANGADVNAKDEYGLTPLYLATAHGHLEIVEVLLKNGADVNAVDAIGFTPLHLAAFIGHLEIAEVLLKHGADVNAQDKFGKTAFDISIGNGNEDLAEILQKLN the binder record lists IC50 [nM], inhibition of BT474 cell proliferation (BrdU) as 2.19

For DARPin #23 (designed binder) MRGSHHHHHHGSDLGDKLLQSDLGIKLLFAAAKSQDDEVRILLAAGADVNAKDFQSVTPLHIAAQSGHLEIVEVLLKAGADVNAKDVTGDTPLHLAAQHGHLEIVEVLLKAGADVNAQDERGWTPADLAADWGHEDIAEVLQKLGGGGSGGGGSRSDLGAKLLVAATSGQDDEVRILLAAGADVNAKDRIGFTPLHRAAFVGHLEIVEVLLKAGADVNAQDDFGHTPADLAASLGHEDIAEVLQKLN the binder record lists IC50 [nM], inhibition of BT474 cell proliferation (BrdU) as 2.99

For DARPin #34 (designed binder) MRGSHHHHHHGSDLGIKLLFAASRGQDDEVRILLAAGADVNAKDFEGITPLHAAARSGHLEIVEVLLKAGADVNAKDVEGWTPLHYAASYGHLEIVEVLLKAGADVNAQDNHGATPADLAAQWGHEDIAEVLQKLGGGGSGGGGSRSDLGKKLLEAARAGQDDEVRILMANGADVNAKDEYGLTPLYLATAHGHLEIVEVLLKNGADVNAVDAIGFTPLHLAAFIGHLEIAEVLLKHGADVNAQDKFGKTAFDISIGNGNEDLAEILQKLN the binder record lists IC50 [nM], inhibition of BT474 cell proliferation (BrdU) as 3.88
